# Recorded Conditions: buffer; pH 7.4; 200.0 µM
Recorded solubility kinetic values for a group of molecules are listed next.

Record excerpt, results attached:
For reference, reported solubility kinetic for Cc1cc(C)n(C)c(=O)c1C#N stands at > 24.3 µg/mL

Lab note: measured solubility kinetic of CCOC(=O)c1cc2c(n(-c3ccc(Cl)cc3)c1=O)CCCC2=O was > 51.9 µg/mL

The molecule identified as CN(CC(=O)NCc1ccccn1)S(=O)(=O)c1ccc(F)cc1 registered its solubility kinetic at > 50.6 µg/mL

solubility kinetic in this record for COc1ccc(CCNC(=O)CSc2ccccn2)cc1 : > 45.4 µg/mL

molecule COCCCNC(=O)C1CC(=O)N(CCc2ccc(F)cc2)C1 (centres undefined) , solubility kinetic observed: > 48.4 µg/mL

---
response.value for COc1ccc(NC(=O)CCNC(=O)c2ccco2)c(OC)c1 (field: solubility kinetic) = > 47.7 µg/mL

What the record says about CC(C)(C)NC(=O)CSCc1ccc(Br)cc1 : solubility kinetic is > 47.4 µg/mL

So, O=C(OCC(=O)N1CCCCCC1)c1cccnc1Cl ? Its solubility kinetic was > 44.5 µg/mL

Memo: O=C(O)c1cccc2c3c([nH]c12)CCCC3 , reported solubility kinetic: > 32.3 µg/mL

====

# Recorded Conditions: buffer; pH 7.4; 200.0 µM
Quantity: solubility kinetic (µg/mL)
Form entry: value (µg/mL) — number only.

In the examples that follow, each entry is paired with its recorded solubility kinetic.
Lab note: measured solubility kinetic of Cn1c(SCc2ccccc2)nc(N)c(N=O)c1=O was 13.6

Reported solubility kinetic of CCOC(=O)c1cn(C2CC2)c2c(F)c(NCCCN(C)C)c(F)cc2c1=O : 53.5

For this molecule ( O=C(O)COCc1nc2ccccc2s1 ), measured solubility kinetic is 31.7

Lookup result for CCNc1c(NCC)c(=O)c1=O ; measured solubility kinetic: 23.2

Entry COc1ccccc1CCC(=O)OCC(=O)NC1CCCCC1 ; solubility kinetic = 43.7

Record summary for COc1cccc(NC(=O)c2cnc(SC)nc2)c1 : reported solubility kinetic = 14.3

Next, consider the following molecule.
Summary for this molecule, CC(C)(C)OC(=O)N1CCCN(C(=O)Nc2cccc(Cl)c2)CC1 : solubility kinetic is 51.4

====

# Recorded Conditions: buffer; pH 7.4; 200.0 µM
Quantity: solubility kinetic

solubility kinetic recorded for this compound, CC1CC(C)CN(C(=O)c2cccc(S(=O)(=O)NCc3ccccc3)c2)C1 (stereo not given) , is > 58 µg/mL

Further cases:
The value of solubility kinetic measured for the compound CCOc1ccc(CC(=O)N2CCN=C2SC)cc1 turned out to be > 41.8 µg/mL

====

Examples of compounds with documented solubility kinetic follow.
# Recorded Conditions: buffer; pH 7.4; 200.0 µM

Reference set (3 entries):
solubility kinetic for CCc1nc2sc3c(c2c(=O)n1CCO)CCC3 is > 39.7 µg/mL

According to the records, this compound CC(=O)CC(C)(C)NC(C)=S displays solubility kinetic of > 26 µg/mL

The compound listed as CCCC(=O)Nc1ccc(C2C(=O)c3ccccc3C2=O)cc1 has a reported solubility kinetic of > 46.1 µg/mL

Next:
The recorded solubility kinetic for entry O=C(CSc1ccccn1)Nc1ccc2[nH]c(=O)[nH]c2c1 equals > 45.1 µg/mL

In plain terms, O=[N+]([O-])c1cc(Cl)ccc1Nc1ccccc1 has a documented solubility kinetic of < 0.3 µg/mL

The compound listed as CCOc1ccccc1NS(=O)(=O)c1csc(C(N)=O)c1 shows solubility kinetic equal to > 49 µg/mL

Input CCOC(=O)C1=C(C)N(C)C(=O)NC1c1c(O)ccc2ccccc12 (configuration not stated) . Output solubility kinetic: > 51.1 µg/mL

solubility kinetic measured on COc1ccccc1NC1=NC(CO)(CO)CS1 = > 40.2 µg/mL

Record COc1ccccc1CNC(=O)C(c1ccccc1)c1ccccc1 , field solubility kinetic: < 0.7 µg/mL

solubility kinetic for CN1CCN(c2ccccc2NC(=O)c2cccs2)CC1 is > 45.2 µg/mL

CSc1ccc(/C=N/S(=O)(=O)c2ccccc2)cc1 yielded solubility kinetic of > 43.7 µg/mL

// solubility kinetic lookup, compound = O=C(CNC(=O)c1ccc(=O)[nH]c1)Nc1ccc(F)c(F)c1 , result: > 46.1 µg/mL

Memo: CCOC(=O)C1=C(COC(=O)Cc2ccccc2)NC(=O)NC1C (configuration not stated) , reported solubility kinetic: > 49.9 µg/mL

The compound CC12CCC(C(=O)N3CCOCC3)([C@H](Br)C1=O)C2(C)C (some centres not stated) showed solubility kinetic equal to > 51.6 µg/mL

Recorded solubility kinetic (compound Cc1cccc(C(=O)O)c1NC(=O)Cc1cccc2ccccc12 ): > 47.9 µg/mL

get_value(item= O=C([O-])c1ncc(Cl)c(Cl)c1Cl.[NH4+] , readout=solubility kinetic) returns > 36.5 µg/mL

Given item CCCCn1c(=O)c(C(=O)Nc2ccc(C)cn2)c(O)c2ccccc21 , the value recorded as its solubility kinetic is < 0.3 µg/mL

Reported solubility kinetic ( CCC1(c2ccc(N)cc2)CCC(=O)NC1=O (configuration not stated) ) = > 34.8 µg/mL

Looking up Cc1ccc(CNc2ncc(-c3ccccc3)n2C)o1.O=C(O)C(=O)O , I see its solubility kinetic listed as > 53.6 µg/mL

Lab note: CCN(CC(=O)NCc1cccs1)C(=O)c1cccc(S(=O)(=O)N(C)C)c1 gave solubility kinetic of > 61.4 µg/mL

// solubility kinetic value for O=C(CN1CCCC1)NCC(=O)Nc1ccc(F)cc1 : > 41.9 µg/mL

Memo: CCOC(=O)C1CCCN(C(=O)CSc2nnc3nc(C)cc(C)n23)C1 (configuration not stated) , reported solubility kinetic: > 56.6 µg/mL

Form: compound = CC(C)CC(Nc1ncnc2scc(-c3ccccc3)c12)C(=O)O (configuration not stated) ; solubility kinetic = > 51.2 µg/mL

For reference, reported solubility kinetic for Cc1nc(SCC(=O)O)c(C#N)c2c1CCCC2 stands at > 39.3 µg/mL

Record CC(=O)Nc1cc(Br)ccc1O , field solubility kinetic: 32.6 µg/mL

Item: CSC1=N/C(=C/c2cccnc2)C(=O)N1Cc1ccc(Cl)cc1 | solubility kinetic: 1.1 µg/mL

// CCN(C(=O)COC(=O)c1ccc2c(c1)OCO2)c1ccc(F)cc1 : solubility kinetic value = 10.4 µg/mL
